tested target: T1, EsCas13d, nuclease-dead (Eubacterium siraeum, UniProt B0MS50, R295A;H300A;R849A;H854A)
T1 sequence: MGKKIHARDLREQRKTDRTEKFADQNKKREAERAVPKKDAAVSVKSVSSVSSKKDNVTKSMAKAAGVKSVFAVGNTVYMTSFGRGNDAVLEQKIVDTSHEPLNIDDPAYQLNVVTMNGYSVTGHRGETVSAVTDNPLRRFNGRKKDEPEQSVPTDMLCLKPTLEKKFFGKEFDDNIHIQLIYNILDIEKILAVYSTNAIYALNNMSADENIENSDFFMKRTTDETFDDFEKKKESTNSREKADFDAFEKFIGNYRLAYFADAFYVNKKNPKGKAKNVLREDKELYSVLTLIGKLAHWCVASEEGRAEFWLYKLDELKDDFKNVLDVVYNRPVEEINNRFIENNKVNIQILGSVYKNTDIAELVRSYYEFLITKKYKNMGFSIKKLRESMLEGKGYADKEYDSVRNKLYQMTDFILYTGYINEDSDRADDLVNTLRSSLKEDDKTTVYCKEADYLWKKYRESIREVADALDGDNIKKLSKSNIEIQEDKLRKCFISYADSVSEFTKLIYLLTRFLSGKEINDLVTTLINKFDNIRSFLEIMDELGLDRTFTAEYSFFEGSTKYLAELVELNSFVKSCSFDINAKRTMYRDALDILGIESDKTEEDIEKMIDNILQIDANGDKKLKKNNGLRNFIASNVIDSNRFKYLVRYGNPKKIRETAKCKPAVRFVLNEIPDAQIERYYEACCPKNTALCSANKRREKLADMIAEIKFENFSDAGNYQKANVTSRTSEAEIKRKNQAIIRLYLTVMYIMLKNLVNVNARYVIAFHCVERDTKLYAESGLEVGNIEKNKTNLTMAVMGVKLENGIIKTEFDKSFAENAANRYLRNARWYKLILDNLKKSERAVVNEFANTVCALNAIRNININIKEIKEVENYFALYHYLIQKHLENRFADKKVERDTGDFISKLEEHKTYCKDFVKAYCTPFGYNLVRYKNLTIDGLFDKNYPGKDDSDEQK
experiment summary: crRNA (strand 1, pre-loaded); Mg2+; 40 mM Tris-HCl pH 7.5, 150 mM NaCl, 6 mM MgCl2, 1 mM DTT, 0.1% Tween-20, 0.2 mg/ml BSA; 25 C; 10 min per concentration, then washed
measurement conditions: tags: His6-TwinStrep-SUMO cleaved; N-terminal SNAP kept (SNAP-Surface 488); label: 3' end held by stalled T7 RNA polymerase
A collection of binders and their measured Kd

{"columns": ["binder", "Kd (nM)"],
 "data": [
  ["target 1 MT 5'PFS UUA 3'PFS UAG (mixed) RNA 1: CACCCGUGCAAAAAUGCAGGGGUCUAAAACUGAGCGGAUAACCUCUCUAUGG RNA 2: GGGAAUGGAUCCACAUCUACGAAUUCUUACCAUAGAGAGGUUAUCCGCUCAUAGAGAUCGGAAGAGCACACGU", 27.5],
  ["target 1 MT 5'PFS UAA 3'PFS UAU (mixed) RNA 1: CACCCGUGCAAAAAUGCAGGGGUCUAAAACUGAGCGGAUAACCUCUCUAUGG RNA 2: GGGAAUGGAUCCACAUCUACGAAUUCUAACCAUAGAGAGGUUAUCCGCUCAUAUAGAUCGGAAGAGCACACGU", 29],
  ["target 1 A18U,C21A (mixed) RNA 1: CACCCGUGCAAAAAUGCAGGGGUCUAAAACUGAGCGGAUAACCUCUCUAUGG RNA 2: GGGAAUGGAUCCACAUCUACGAAUUCGUACAAUUGAGAGGUUAUCCGCUCACCGAGAUCGGAAGAGCACACGU", 56],
  ["target 1 MT 5'PFS CUG 3'PFS AAG (mixed) RNA 1: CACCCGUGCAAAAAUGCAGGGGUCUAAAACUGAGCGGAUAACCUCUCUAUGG RNA 2: GGGAAUGGAUCCACAUCUACGAAUUCCUGCCAUAGAGAGGUUAUCCGCUCAAAGAGAUCGGAAGAGCACACGU", 12.4],
  ["target 1 insU 3' of 18,insC 3' of 10 (mixed) RNA 1: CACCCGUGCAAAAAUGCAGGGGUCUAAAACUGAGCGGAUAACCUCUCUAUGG RNA 2: GGGAAUGGAUCCACAUCUACGAAUUCGUACCAUAUGAGAGGUUCAUCCGCUCACCGAGAUCGGAAGAGCACACGU", 65],
  ["target 1 insA 3' of 15,insU 3' of 15 (mixed) RNA 1: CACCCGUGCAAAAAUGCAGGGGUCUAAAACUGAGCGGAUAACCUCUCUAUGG RNA 2: GGGAAUGGAUCCACAUCUACGAAUUCGUACCAUAGAGAUAGGUUAUCCGCUCACCGAGAUCGGAAGAGCACACGU", 15.7],
  ["target 2 MT 5'PFS CUG 3'PFS CUA (mixed) RNA 1: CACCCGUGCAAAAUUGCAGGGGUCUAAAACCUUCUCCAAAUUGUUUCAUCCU RNA 2: GGGAAUGGAUCCACAUCUACGAAUUCCUGAGGAUGAAACAAUUUGGAGAAGCUAAGAUCGGAAGAGCACACGU", 3.2],
  ["target 1 MT 5'PFS AAG 3'PFS UAU (mixed) RNA 1: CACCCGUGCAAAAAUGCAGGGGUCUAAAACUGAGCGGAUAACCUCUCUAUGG RNA 2: GGGAAUGGAUCCACAUCUACGAAUUCAAGCCAUAGAGAGGUUAUCCGCUCAUAUAGAUCGGAAGAGCACACGU", 18.5]
]}
